# procedure_details: physchem
# Format: physicochemical
# applied_conditions: water, 4% peg-40 stearate, organic solvent or mixture
metric_name: solubility at 24 h (µg/mL)
Unit µg/mL implied. Number only.

Report solubility at 24 h for `O=C1N(Cc2ccc(CO)cc2)[C@H](Cc2ccccc2)[C@H](O)[C@@H](O)[C@@H](Cc2ccccc2)N1Cc1ccc(CO)cc1` please.
718

====

# procedure_details: physchem
# Type: physicochemical
# applied_conditions: water, 4% gelucire 44/14
metric_name: solubility at 24 h (µg/mL)
// note: answer is a bare numeric in µg/mL

Could you tell me which solubility at 24 h is on file for `O=C1N(Cc2ccc(CO)cc2)[C@H](Cc2ccccc2)[C@H](O)[C@@H](O)[C@@H](Cc2ccccc2)N1Cc1ccc(CO)cc1` ?
758

====

# procedure_details: physchem
# Format: physicochemical
# applied_conditions: 4% peg-60 hydrogenated castor oil, organic solvent or mixture
metric_name: solubility at 24 h (µg/mL)
Only the number, expressed in µg/mL, is required.

Find the recorded solubility at 24 h belonging to `O=C1N(Cc2ccc(CO)cc2)[C@H](Cc2ccccc2)[C@H](O)[C@@H](O)[C@@H](Cc2ccccc2)N1Cc1ccc(CO)cc1` and report it.
715

====

# procedure_details: physchem
# Assay type: physicochemical
# applied_conditions: water, 4% peg-8 stearate, organic solvent or mixture
# Experimental: The cyclic urea antiviral agents of this invention are generally poorly water-soluble. Poor water solubility could be related to low oral bioavailability and dose-related bioavailability. One effect of the formulation ingredients may be to alter water solubility. […] Specifically, aqueous solutions were prepared containing 4% (w/v) of the formulation ingredients listed. […] Samples were filtered, and Ex. No. 5U solubility was determined by measuring filtrate drug concentrations using HPLC.
metric_name: solubility at 24 h (µg/mL)
Give just the numeric value; µg/mL need not be written.

Requested field: solubility at 24 h. Item: O=C1N(Cc2ccc(CO)cc2)[C@H](Cc2ccccc2)[C@H](O)[C@@H](O)[C@@H](Cc2ccccc2)N1Cc1ccc(CO)cc1 [Ex. No. 5U]
44

====

# procedure_details: physchem
# Format: physicochemical
# applied_conditions: water, 4% glycerol dilaurate, organic solvent or mixture
metric_name: solubility at 24 h (µg/mL)
The answer is to be given in µg/mL; state only the numeric part.

Given the entry O=C1N(Cc2ccc(CO)cc2)[C@H](Cc2ccccc2)[C@H](O)[C@@H](O)[C@@H](Cc2ccccc2)N1Cc1ccc(CO)cc1 [Ex. No. 5U] , report its measured solubility at 24 h.
11

====

# procedure_details: physchem
# Type: physicochemical
# applied_conditions: water, 4% peg-4 laurate, organic solvent or mixture
metric_name: solubility at 24 h (µg/mL)
Kindly answer with a numeric value in µg/mL, unit omitted.

Consider the compound `O=C1N(Cc2ccc(CO)cc2)[C@H](Cc2ccccc2)[C@H](O)[C@@H](O)[C@@H](Cc2ccccc2)N1Cc1ccc(CO)cc1` and give its measured solubility at 24 h.
81
